Hello, the source for this data is the Human Domainome abundance scans (Beltran et al. 2025), in case you need it.

B1: Cold shock protein CspB, residues 1 to 66; numbered along this chain, P41016 (parent)
chain: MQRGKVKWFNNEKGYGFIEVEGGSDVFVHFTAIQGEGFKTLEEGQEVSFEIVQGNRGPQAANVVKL

# Variants of: B1
# assay-notes: abundance fitness (aPCA) (normalised: wild type 0, dead -1); higher = more abundant; growth selection in yeast, the domain comes from the species named
# run-parameters: Bacillus caldolyticus
test-readout: abundance fitness
Write the value as a bare number.

Here are 5 variants together with their reported answers.
Qu. Entry under review: Q34C . Reported abundance fitness?
Ans. -0.071

Qu. Query E12D next
Ans. -0.021

Qu. Query G35S next
Ans. -0.035

Qu. Query E19H next
Ans. 0.016

Qu. Query N10C next
Ans. -0.027

---
Qu. Entry under review: R3V . Reported abundance fitness?
Ans. -0.013

Qu. Query F9D next
Ans. -0.881

Qu. Query Q34D next
Ans. 0.079

Qu. Query V28N next
Ans. -0.999

Qu. Query G16E next
Ans. -1.16

Qu. Query S24C next
Ans. -0.029
